Assay: small-molecule microarray binders of probe aCHRDL2, primary screen, biochemical, biotinylated probe, 635/667 nm fluorescence (AID 1100)
Details: higher = more signal
Give measured composite z-score for each item. Keep answers brief.
Lab note: record just the number, no unit beside it.

Per the record, CO[C@@H]1COC(=O)CC=C[C@H](C)COC(=O)[C@H](C)NC(=O)CC=C[C@H]1C has composite z-score of -0.774

The measured composite z-score associated with COC(=O)[C@H](C)NC(=O)CCC1CC(OC(=O)NCCc2ccc(F)cc2)CC2(CCCC(COC(=O)NCCCN3CCCC3=O)O2)O1 (some centres not stated) reads 0.778

Looking up Cc1ccc(S(=O)(=O)N[C@H]2COC(=O)[C@@H](C)COC(=O)[C@H](C)NC(=O)CC=C[C@H]2C)cc1 , I see its composite z-score listed as -0.972

What the record says about CCOC(=O)CCN1C(=O)[C@H]2[C@H]3[C@H](O)[C@H](O)CC(=NNC(=O)OCC)[C@@H]3CC[C@H]2C1=O : composite z-score is -0.0213

Kindly note the recorded composite z-score for CCOC(=O)[C@H](CC(C)C)NC(=O)CCC1CC(OC(=O)NCc2cccc3ccccc23)CC2(CCCC(COC(=O)NCc3ccccc3)O2)O1 (some centres not stated) , which is -0.103

Entry CC(C)CCN1CCc2nc(-c3ccccc3)c3c(c2C1)CO[C@@H](C)C3 ; composite z-score = -0.148

The measured composite z-score associated with CC(C)=CCCC(C)=CCON=C1C[C@@H](O)[C@@H](O)[C@@H]2[C@@H]3C(=O)N([C@@H](C)c4ccccc4)C(=O)[C@@H]3CC[C@H]12 reads -0.213

====

System: Sam68 (KHDRBS1)
Experiment: Sam68 small-molecule binders, primary screen, biochemical, small-molecule microarray, 635 nm fluorescence (AID 1125);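 note: score merges 667 nm channel intensity with signal to noise over triplicate slides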
Details: small-molecule microarray binding, higher = more signal
Would you mind labelling by composite z-score? At or over 1 is Yes, under is No.

Could you verify whether the entry CO[C@@H]1C=CCC(=O)N2CCC[C@H]2C(=O)OC[C@H](C)C(=O)OC[C@H]1C shows composite z-score of no less than 1? No

Test whether the compound CC(=O)OC[C@H]1O[C@H](C#CC(C)(C)C)C=C[C@@H]1OC(C)=O records composite z-score of 1 or higher. Yes

Is composite z-score for CO[C@H]1COC(=O)[C@H](C)NC(=O)CC=C[C@@H](C)[C@H](OC)COC(=O)CC=C[C@@H]1C at or above 1? No

Entry CC(C)=CCCC(C)=CCON=C1C[C@@H](O)[C@@H](O)[C@@H]2[C@@H]3C(=O)N([C@@H](C)c4ccccc4)C(=O)[C@@H]3CC[C@H]12 : is its composite z-score no less than 1? Yes

Check if composite z-score >= 1 (inclusive). Item: C=C(C)C(=O)OC[C@@H]1CN2[C@@H](CC[C@@H](C)[C@@H]2c2ccc(Br)cc2)C(=O)O1 Yes

Reported composite z-score at or above 1? Cc1ccc(S(=O)(=O)N[C@H]2COC(=O)[C@@H](C)COC(=O)[C@H](C)NC(=O)CC=C[C@H]2C)cc1 No

Is composite z-score at least 1? Consider CC(C)=NOCc1ccc(-c2cn([C@@H]3COC[C@H]3O)nn2)cc1 No

Origin of measurements: PubChem BioAssay
